// data source = ChEMBL document CHEMBL3351561

- PROCEDURE_TEXT: Total plasma concentration in SCID mouse xenografted with PTEN-null human PC3 cells at 50 mg/kg, po measured after 4 hrs
- Format: ADME, organism-based, PC-3
- Set-up: dose 50 mg/kg, route oral
ENDPOINT_NAME: concentration at 4 h
Report as: number unit

# query: concentration at 4 h of entry CC(Nc1cccc(Cl)c1F)c1cc(C(=O)NCCN(C)C)cn2c(=O)cc(N3CCOCC3)nc12 (single isomer, unassigned; (-))
12 µM

----------
- TESTED_ON: Phosphatidylinositol 4,5-bisphosphate 3-kinase catalytic subunit gamma isoform (Homo sapiens)
- Sequence (P48736 whole entry, canonical isoform): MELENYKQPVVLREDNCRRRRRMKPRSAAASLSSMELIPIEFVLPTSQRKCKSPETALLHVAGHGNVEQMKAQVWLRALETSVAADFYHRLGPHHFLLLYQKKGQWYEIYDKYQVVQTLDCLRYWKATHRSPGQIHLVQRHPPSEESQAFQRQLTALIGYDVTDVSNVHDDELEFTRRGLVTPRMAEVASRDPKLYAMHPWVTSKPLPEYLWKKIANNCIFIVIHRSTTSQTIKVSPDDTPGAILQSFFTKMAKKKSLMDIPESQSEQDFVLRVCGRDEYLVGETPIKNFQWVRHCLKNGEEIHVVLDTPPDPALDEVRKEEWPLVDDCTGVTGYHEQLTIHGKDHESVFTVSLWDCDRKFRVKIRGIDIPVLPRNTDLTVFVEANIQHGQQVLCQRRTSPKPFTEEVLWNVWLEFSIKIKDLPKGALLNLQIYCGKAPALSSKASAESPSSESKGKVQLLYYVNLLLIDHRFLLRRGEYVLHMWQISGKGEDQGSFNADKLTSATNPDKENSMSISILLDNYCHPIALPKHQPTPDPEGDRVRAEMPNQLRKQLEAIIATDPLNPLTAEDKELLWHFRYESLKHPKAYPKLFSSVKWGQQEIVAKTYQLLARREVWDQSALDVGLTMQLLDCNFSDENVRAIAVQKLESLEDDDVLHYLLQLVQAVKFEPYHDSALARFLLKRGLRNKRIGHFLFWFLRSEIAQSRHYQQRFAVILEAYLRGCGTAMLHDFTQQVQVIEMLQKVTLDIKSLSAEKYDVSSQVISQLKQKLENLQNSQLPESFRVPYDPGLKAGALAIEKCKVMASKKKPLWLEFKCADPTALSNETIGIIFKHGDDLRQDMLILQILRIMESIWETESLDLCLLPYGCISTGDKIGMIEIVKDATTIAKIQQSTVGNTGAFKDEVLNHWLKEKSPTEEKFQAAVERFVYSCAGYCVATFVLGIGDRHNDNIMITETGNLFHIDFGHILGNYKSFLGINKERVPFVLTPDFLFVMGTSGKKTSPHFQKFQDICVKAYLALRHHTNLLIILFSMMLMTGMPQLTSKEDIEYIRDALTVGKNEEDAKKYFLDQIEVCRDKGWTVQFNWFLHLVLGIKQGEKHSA
- PROCEDURE_TEXT: Inhibition of human recombinant PI3Kgamma assessed as depletion of ATP substrate by Ultra Glo luciferase assay
ENDPOINT_NAME: IC50 (µM)
Form entry: value (µM) — number only.

[
  {
    "COMPOUND": "CC(Nc1ccc(F)c(F)c1)c1cc(C(=O)N(C)C)cn2c(=O)cc(N3CCOCC3)nc12 (single isomer, unassigned; (-))",
    "IC50 / µM": 3
  }
]

Tell me the measured IC50 of CC(Nc1ccccc1)c1cc(C(=O)N(C)C)cn2c(=O)cc(N3CCOCC3)nc12 (single isomer, unassigned; (+)) , please.
6

Recorded IC50 of CC(Nc1cccc(Cl)c1F)c1cc(C(=O)NCCN(C)C)cn2c(=O)cc(N3CCOCC3)nc12 (single isomer, unassigned; (-)) , please.
0.67

Form field: reported IC50 of CC(Nc1ccc(F)cc1)c1cc(C(=O)N(C)C)cn2c(=O)cc(N3CCOCC3)nc12 (single isomer, unassigned; (-))
13.5

Which value of IC50 has been reported for C[C@@H](Nc1cc(F)cc(F)c1)c1cc(C(=O)N(C)C)cn2c(=O)cc(N3CCOCC3)nc12 in the records?
0.51

# query: IC50 of entry CC(Nc1ccccc1)c1cc(C(=O)NCCN(C)C)cn2c(=O)cc(N3CCOCC3)nc12 (single isomer, unassigned; (-))
6.9
